The origin of these recorded values is paper PMC10425210.

Assay: Plasma pharmacokinetics after a single subcutaneous administration of LEN
Format: in vivo, rhesus macaques
Details: male, Indian-origin (outbred), rhesus monkey, plasma, subcutaneous, 75 mg/kg, Plasma LEN, animal V435, 75 mg/kg, week 6 post challenge
valueKind: concentration at 6 weeks post challenge (nM)
Value expressed in nM; do not type the unit.

Field request: concentration at 6 weeks post challenge | item: CC(C)(C#Cc1ccc(-c2ccc(Cl)c3c(NS(C)(=O)=O)nn(CC(F)(F)F)c23)c([C@H](Cc2cc(F)cc(F)c2)NC(=O)Cn2nc(C(F)(F)F)c3c2C(F)(F)[C@@H]2C[C@H]32)n1)S(C)(=O)=O [LEN, Lenacapavir]
8.59

* * *

Assay: Plasma pharmacokinetics after a single subcutaneous administration of LEN
Assay type: in vivo, rhesus macaques
Conditions: male, Indian-origin (outbred), rhesus monkey, plasma, subcutaneous, 5 mg/kg, Plasma LEN (Mean), 5 mg/kg sc, week 10 post dose
valueKind: concentration at 10 week (nM)
Value expressed in nM; do not type the unit.

Field request: concentration at 10 week | item: CC(C)(C#Cc1ccc(-c2ccc(Cl)c3c(NS(C)(=O)=O)nn(CC(F)(F)F)c23)c([C@H](Cc2cc(F)cc(F)c2)NC(=O)Cn2nc(C(F)(F)F)c3c2C(F)(F)[C@@H]2C[C@H]32)n1)S(C)(=O)=O [LEN, Lenacapavir]
3.41

* * *

Experiment: Plasma pharmacokinetics after a single subcutaneous administration of LEN
Format: in vivo, rhesus macaques
Settings: male, outbred Indian-origin, rhesus monkey, plasma; 50 mg/kg sc, mean ± SD
valueKind: Cmax (nM)
Value expressed in nM; do not type the unit.

Field request: Cmax | item: CC(C)(C#Cc1ccc(-c2ccc(Cl)c3c(NS(C)(=O)=O)nn(CC(F)(F)F)c23)c([C@H](Cc2cc(F)cc(F)c2)NC(=O)Cn2nc(C(F)(F)F)c3c2C(F)(F)[C@@H]2C[C@H]32)n1)S(C)(=O)=O
200

* * *

Experiment: Plasma pharmacokinetics after a single subcutaneous administration of LEN
Type: in vivo, rhesus macaques
Conditions: male, Indian-origin (outbred), rhesus monkey, plasma, subcutaneous, 5 mg/kg, Plasma LEN (Mean), 5 mg/kg sc, week 12 post dose
valueKind: concentration at 12 week (nM)
Value expressed in nM; do not type the unit.

Field request: concentration at 12 week | item: CC(C)(C#Cc1ccc(-c2ccc(Cl)c3c(NS(C)(=O)=O)nn(CC(F)(F)F)c23)c([C@H](Cc2cc(F)cc(F)c2)NC(=O)Cn2nc(C(F)(F)F)c3c2C(F)(F)[C@@H]2C[C@H]32)n1)S(C)(=O)=O [LEN, Lenacapavir]
1.87

* * *

Experiment: Plasma pharmacokinetics after a single subcutaneous administration of LEN
Type: in vivo, rhesus macaques
Settings: male, Indian-origin, outbred, rhesus monkey, plasma, subcutaneous, 50 mg/kg, Plasma LEN (Mean), 50 mg/kg sc, week 0.14 post dose
valueKind: concentration at 0.14 week (nM)
Value expressed in nM; do not type the unit.

Field request: concentration at 0.14 week | item: CC(C)(C#Cc1ccc(-c2ccc(Cl)c3c(NS(C)(=O)=O)nn(CC(F)(F)F)c23)c([C@H](Cc2cc(F)cc(F)c2)NC(=O)Cn2nc(C(F)(F)F)c3c2C(F)(F)[C@@H]2C[C@H]32)n1)S(C)(=O)=O
196

* * *

Assay: Plasma pharmacokinetics after a single subcutaneous administration of LEN
Type: in vivo, rhesus macaques
Details: male, Indian-origin (outbred), rhesus monkey, plasma, subcutaneous, 50 mg/kg, Plasma LEN (Mean), 50 mg/kg sc, week 16 post dose
valueKind: concentration at 16 week (nM)
Value expressed in nM; do not type the unit.

Field request: concentration at 16 week | item: CC(C)(C#Cc1ccc(-c2ccc(Cl)c3c(NS(C)(=O)=O)nn(CC(F)(F)F)c23)c([C@H](Cc2cc(F)cc(F)c2)NC(=O)Cn2nc(C(F)(F)F)c3c2C(F)(F)[C@@H]2C[C@H]32)n1)S(C)(=O)=O
22.2

* * *

Test: Plasma pharmacokinetics after a single subcutaneous administration of LEN
Type: in vivo, rhesus macaques
Settings: male, Indian-origin, outbred, rhesus monkey, plasma, subcutaneous, 75 mg/kg, Plasma LEN (Mean), 75 mg/kg sc, week 18 post dose
valueKind: concentration at 18 week (nM)
Value expressed in nM; do not type the unit.

Field request: concentration at 18 week | item: CC(C)(C#Cc1ccc(-c2ccc(Cl)c3c(NS(C)(=O)=O)nn(CC(F)(F)F)c23)c([C@H](Cc2cc(F)cc(F)c2)NC(=O)Cn2nc(C(F)(F)F)c3c2C(F)(F)[C@@H]2C[C@H]32)n1)S(C)(=O)=O
20.9

* * *

Assay: Plasma pharmacokinetics after a single subcutaneous administration of LEN
Format: in vivo, rhesus macaques
Conditions: male, Indian-origin, outbred, rhesus monkey, plasma, subcutaneous, 20 mg/kg, Plasma LEN (Mean), 20 mg/kg sc, week 0.43 post dose
valueKind: concentration at 0.43 week (nM)
Value expressed in nM; do not type the unit.

Field request: concentration at 0.43 week | item: CC(C)(C#Cc1ccc(-c2ccc(Cl)c3c(NS(C)(=O)=O)nn(CC(F)(F)F)c23)c([C@H](Cc2cc(F)cc(F)c2)NC(=O)Cn2nc(C(F)(F)F)c3c2C(F)(F)[C@@H]2C[C@H]32)n1)S(C)(=O)=O
17.8

* * *

Assay: Plasma pharmacokinetics after a single subcutaneous administration of LEN
Type: in vivo, rhesus macaques
Conditions: male, Indian-origin, outbred, rhesus monkey, plasma, subcutaneous, 10 mg/kg, Plasma LEN (Mean), 10 mg/kg sc, week 2 post dose
Method: All animals were housed at Bioqual Inc. For the in vivo SHIV stock titration study, 8 untreated outbred Indian-origin male rhesus macaques aged 3–5 years were challenged intrarectally per round for a total of 5 challenge rounds using increasing virus doses ranging from 0.625 to 100 TCID50, with the 100 TCID50 round performed twice for increased resolution (Supplemental Table 2). Plasma viral load was measured to confirm the infection status. […]
valueKind: concentration at 2 week (nM)
Value expressed in nM; do not type the unit.

Field request: concentration at 2 week | item: CC(C)(C#Cc1ccc(-c2ccc(Cl)c3c(NS(C)(=O)=O)nn(CC(F)(F)F)c23)c([C@H](Cc2cc(F)cc(F)c2)NC(=O)Cn2nc(C(F)(F)F)c3c2C(F)(F)[C@@H]2C[C@H]32)n1)S(C)(=O)=O
8.58

* * *

Test: Plasma pharmacokinetics after a single subcutaneous administration of LEN
Format: in vivo, rhesus macaques
Settings: male, Indian-origin, outbred, rhesus monkey, plasma, subcutaneous, 50 mg/kg, Plasma LEN (Mean), 50 mg/kg sc, week 23 post dose
valueKind: concentration at 23 week (nM)
Value expressed in nM; do not type the unit.

Field request: concentration at 23 week | item: CC(C)(C#Cc1ccc(-c2ccc(Cl)c3c(NS(C)(=O)=O)nn(CC(F)(F)F)c23)c([C@H](Cc2cc(F)cc(F)c2)NC(=O)Cn2nc(C(F)(F)F)c3c2C(F)(F)[C@@H]2C[C@H]32)n1)S(C)(=O)=O
5.76

* * *

Experiment: Plasma pharmacokinetics after a single subcutaneous administration of LEN
Type: in vivo, rhesus macaques
Details: male, Indian-origin (outbred), rhesus monkey, plasma, subcutaneous, 75 mg/kg, Plasma LEN (Mean), 75 mg/kg sc, week 8 post dose
valueKind: concentration at 8 week

Field request: concentration at 8 week | item: CC(C)(C#Cc1ccc(-c2ccc(Cl)c3c(NS(C)(=O)=O)nn(CC(F)(F)F)c23)c([C@H](Cc2cc(F)cc(F)c2)NC(=O)Cn2nc(C(F)(F)F)c3c2C(F)(F)[C@@H]2C[C@H]32)n1)S(C)(=O)=O
55 nM

* * *

Assay: Plasma pharmacokinetics after a single subcutaneous administration of LEN
Format: in vivo, rhesus macaques
Details: male, Indian-origin (outbred), rhesus monkey, plasma, subcutaneous, 75 mg/kg, Plasma LEN (Mean), 75 mg/kg sc, week 10 post dose
valueKind: concentration at 10 week (nM)
Value expressed in nM; do not type the unit.

Field request: concentration at 10 week | item: CC(C)(C#Cc1ccc(-c2ccc(Cl)c3c(NS(C)(=O)=O)nn(CC(F)(F)F)c23)c([C@H](Cc2cc(F)cc(F)c2)NC(=O)Cn2nc(C(F)(F)F)c3c2C(F)(F)[C@@H]2C[C@H]32)n1)S(C)(=O)=O [LEN, Lenacapavir]
98

* * *

Test: Plasma pharmacokinetics after a single subcutaneous administration of LEN
Format: in vivo, rhesus macaques
Details: male, outbred Indian-origin, rhesus monkey, plasma, subcutaneous, 50 mg/kg, Plasma LEN (Mean), 50 mg/kg sc, week 7 post dose
valueKind: concentration at 7 weeks (nM)
Value expressed in nM; do not type the unit.

Field request: concentration at 7 weeks | item: CC(C)(C#Cc1ccc(-c2ccc(Cl)c3c(NS(C)(=O)=O)nn(CC(F)(F)F)c23)c([C@H](Cc2cc(F)cc(F)c2)NC(=O)Cn2nc(C(F)(F)F)c3c2C(F)(F)[C@@H]2C[C@H]32)n1)S(C)(=O)=O
103
